Each recorded value in this set is attributed to patent US12559750B2.

Test system: AMPA-R
measurement-notes: [3H]AMPA radioligand binding assay on rat brain synaptic membranes;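 note: competition binding in which test compounds at rising concentrations displace [3H]AMPA from AMPA-R on rat brain synaptic membranes, with reduced bound radioligand as read-out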
setup-conditions: Experiment #2, 100 uM
Tick True if % Inhibition @ 100 uM is 20% or greater. Tick False if % Inhibition @ 100 uM is less than 20%.

Here are 5 sequences together with their reported answers.
{"columns": ["sequence-chain", "tested-system", "assigned-category"],
 "data": [
  ["ASGSCMAFCFUFUMUSCS [RG-NG-1016]", "AMPA-R", "False"],
  ["ASGSCMALCFUFUMUSCS [RG-NG-1026]", "AMPA-R", "False"],
  ["ASGECMAFCFUFUMTEGS [RG-NG-1008]", "AMPA-R", "True"],
  ["AMGLCLALCLUMTLUCM [RG-NG-1029]", "AMPA-R", "True"],
  ["AEGECMAFCFUFUMUSGS [RG-NG-1010]", "AMPA-R", "True"]
]}

Pending sequence:
Q) Record ASGSCSASCSUSUSUS [RG-NG-1002] ; criterion: % Inhibition @ 100 uM no lower than 20%. Met?
A) True
